- SYSTEM_UNDER_TEST: Xanthine dehydrogenase/oxidase (Bos taurus)
- Sequence (P80457 whole entry): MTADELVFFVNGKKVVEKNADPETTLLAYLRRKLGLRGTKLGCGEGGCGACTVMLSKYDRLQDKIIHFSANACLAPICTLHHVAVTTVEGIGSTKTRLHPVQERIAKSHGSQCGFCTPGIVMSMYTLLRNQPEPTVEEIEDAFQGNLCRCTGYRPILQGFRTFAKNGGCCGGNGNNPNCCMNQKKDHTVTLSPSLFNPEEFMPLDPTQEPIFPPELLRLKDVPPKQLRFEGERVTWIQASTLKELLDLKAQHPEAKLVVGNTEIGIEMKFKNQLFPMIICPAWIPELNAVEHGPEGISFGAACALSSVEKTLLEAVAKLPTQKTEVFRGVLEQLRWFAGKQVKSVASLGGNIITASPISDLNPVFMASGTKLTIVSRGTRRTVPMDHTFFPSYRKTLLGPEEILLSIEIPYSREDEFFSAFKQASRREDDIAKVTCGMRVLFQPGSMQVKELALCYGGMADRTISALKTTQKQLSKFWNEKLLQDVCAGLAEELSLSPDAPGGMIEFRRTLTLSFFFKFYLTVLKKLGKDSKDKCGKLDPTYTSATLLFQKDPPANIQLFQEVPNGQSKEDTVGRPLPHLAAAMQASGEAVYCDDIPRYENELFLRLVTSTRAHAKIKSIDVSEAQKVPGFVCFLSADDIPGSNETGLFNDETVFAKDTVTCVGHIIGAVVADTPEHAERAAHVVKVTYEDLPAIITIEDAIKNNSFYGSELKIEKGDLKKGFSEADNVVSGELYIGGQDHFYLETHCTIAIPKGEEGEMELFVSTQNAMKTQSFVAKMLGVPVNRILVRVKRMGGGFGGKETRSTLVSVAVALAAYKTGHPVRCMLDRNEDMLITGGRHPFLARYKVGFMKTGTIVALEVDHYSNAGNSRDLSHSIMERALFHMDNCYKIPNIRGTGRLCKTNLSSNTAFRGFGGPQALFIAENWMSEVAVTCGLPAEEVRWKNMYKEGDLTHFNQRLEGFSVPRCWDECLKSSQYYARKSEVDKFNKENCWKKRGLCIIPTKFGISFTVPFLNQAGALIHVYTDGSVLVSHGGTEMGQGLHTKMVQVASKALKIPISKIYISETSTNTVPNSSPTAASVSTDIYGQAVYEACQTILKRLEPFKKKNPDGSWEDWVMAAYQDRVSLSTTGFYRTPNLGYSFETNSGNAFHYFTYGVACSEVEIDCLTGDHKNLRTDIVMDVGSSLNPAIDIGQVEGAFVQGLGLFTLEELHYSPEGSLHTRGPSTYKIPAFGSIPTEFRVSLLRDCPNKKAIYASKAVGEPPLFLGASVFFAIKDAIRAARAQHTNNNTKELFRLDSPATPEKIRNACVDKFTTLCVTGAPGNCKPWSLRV
- TEST_SUMMARY: Xanthine Oxidase Activity
- ASSAY_SETUP: pH 7.6; 25 °C
The following molecules are listed with their measured pIC50 values.
Please note pIC50 is a logarithmic value: minus log10 of concentration in mol/L. Answer with that number alone.

// worked examples, pIC50 included
MOLECULE	pIC50
O=C(O)/C=C/c1ccc(O)cc1 [p-Coumaric Acid]	5.17
COc1cc(-c2oc3cc(O)cc(=O)c-3cc2OC2OC(CO)C(O)C(O)C2O)ccc1O (configuration not stated)	5.06
O=c1cc(O)cc2oc(-c3ccc(O)c(O)c3)c(OC3OC(CO)C(O)C(O)C3O)cc1-2 (configuration not stated) [Cyanidin-3-glucoside (M8)]	5.14
O=C(O)c1ccc(O)c(O)c1 [Protocatechuic acid (M1)]	5.24
O=C(O)c1c(O)cc(O)cc1O [2,4,6-trihydroxybenzoic acid (M3)]	5.19
COc1cc(C(=O)O)ccc1O [4-hydroxy-3-methoxybenzoic acid]	5.07

Query: # return pIC50 for `CC[C@H]1O[C@@H](Oc2c(-c3ccc(O)c(OC)c3)oc3cc(O)cc(=O)c-3c2O)[C@H](O)[C@@H](O)[C@@H]1O` , test system: Xanthine dehydrogenase/oxidase (Bos taurus)
Result: 5.07

* * *

- SYSTEM_UNDER_TEST: Alpha-glucosidase MAL12 (Saccharomyces cerevisiae (strain ATCC 204508 / S288c), UniProt P53341)
- Sequence (P53341 whole entry): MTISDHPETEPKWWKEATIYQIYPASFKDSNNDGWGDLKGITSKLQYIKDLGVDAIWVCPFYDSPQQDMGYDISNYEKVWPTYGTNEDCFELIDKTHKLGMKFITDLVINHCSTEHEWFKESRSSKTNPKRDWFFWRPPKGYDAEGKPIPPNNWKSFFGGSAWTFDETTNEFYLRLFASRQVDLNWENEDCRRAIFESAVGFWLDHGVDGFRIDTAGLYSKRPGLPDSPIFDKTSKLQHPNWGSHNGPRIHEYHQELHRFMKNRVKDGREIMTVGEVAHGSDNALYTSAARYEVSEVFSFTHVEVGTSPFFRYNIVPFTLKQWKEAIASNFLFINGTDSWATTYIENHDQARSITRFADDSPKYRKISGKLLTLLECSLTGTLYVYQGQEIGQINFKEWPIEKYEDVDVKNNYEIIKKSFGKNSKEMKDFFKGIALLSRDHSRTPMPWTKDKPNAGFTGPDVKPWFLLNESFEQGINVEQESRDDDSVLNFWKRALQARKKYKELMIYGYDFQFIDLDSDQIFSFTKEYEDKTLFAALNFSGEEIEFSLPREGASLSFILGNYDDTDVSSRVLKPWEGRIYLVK
- TEST_SUMMARY: Alpha-Glucosidase Assay
PARAMETER_MEASURED: IC50
Lab note: write values as number then unit, every time.

// worked examples, IC50 included
COMPOUND	READOUT_VALUE
COc1cc(C(=O)O)ccc1O [4-hydroxy-3-methoxybenzoic acid]	205 µM
O=C(O)/C=C/c1ccc(O)cc1	90.8 µM
O=c1cc(O)cc2oc(-c3ccc(O)cc3)c(OC3OC(CO)C(O)C(O)C3O)cc1-2 (centres undefined)	198 µM

Query: Fill in reported IC50 for this entry: O=C(O)c1c(O)cc(O)cc1O [2,4,6-trihydroxybenzoic acid (M3)]
Result: 113 µM

Query: Fill in reported IC50 for this entry: `O=C(O)c1ccc(O)c(O)c1`
Result: 85.1 µM

Query: Fill in reported IC50 for this entry: `CC[C@H]1O[C@@H](Oc2c(-c3ccc(O)c(OC)c3)oc3cc(O)cc(=O)c-3c2O)[C@H](O)[C@@H](O)[C@@H]1O`
Result: 246 µM

Query: Fill in reported IC50 for this entry: `COc1cc(/C=C/C(=O)O)ccc1O`
Result: 251 µM

Query: Fill in reported IC50 for this entry: O=c1cc(O)cc2oc(-c3ccc(O)c(O)c3)c(OC3OC(CO)C(O)C(O)C3O)cc1-2 (centres undefined) [Cyanidin-3-glucoside (M8)]
Result: 221 µM

Query: Fill in reported IC50 for this entry: COc1cc(-c2oc3cc(O)cc(=O)c-3cc2OC2OC(CO)C(O)C(O)C2O)ccc1O (centres undefined)
Result: 260 µM
